Target Of Assay: Recombinant human HSD17B13 (Homo sapiens (Human))
Procedure Details: HSD17B13 rapid-fire mass spectrometry assay (RF/MS assay)
Cond: inhibition of HSD17B13; LTB4 10 μM, NAD+ 0.5 mM, RT 3 h; IC50 ranges A-E
pIC50: −log10 of the molar value.
Quantity Measured: pIC50

Some compounds with recorded pIC50:
> print(dat)
                                   compound  quantity.measured  value.observed
1  COc1cc(C(=O)O)c(F)cc1NS(=O)(=O)c1cnc(-c2ccc(C3=CCC(C(C)C)CC3)cc2)s1 (stereo not drawn) [Example 765]              pIC50    6.30 to 7.00
2  COc1cc(C#N)ccc1NS(=O)(=O)c1cnc(-c2ccc(F)cc2)s1 [Example 123]              pIC50    4.00 to 6.00
3  COc1cc(C(=O)O)c(F)cc1NS(=O)(=O)c1ncc(-c2ccc([C@H]3CC[C@H](C(F)(F)F)CC3)cc2)s1 [Example 621]              pIC50    6.30 to 7.00
4  COc1cc(C(=O)O)ccc1NS(=O)(=O)c1csc(-c2ccc(C#CC3CCCCC3)cc2)n1 [Example 485]              pIC50    6.30 to 7.00
5  CCCCOc1c(C2=CCC(C)(C)CC2)ccc(-c2nc(S(=O)(=O)Nc3cc(F)c(C(=O)O)cc3OC)cs2)c1F [Example 578]              pIC50    6.30 to 7.00
6  CCOc1c(C2=CCC(C(F)(F)F)CC2)ccc(-c2nc(S(=O)(=O)Nc3cc(F)c(C(=O)O)cc3OC)cs2)c1F (stereo not drawn) [Example 816]              pIC50          > 7.00

Tell me pIC50 reported for COc1cc(C(=O)O)ccc1NS(=O)(=O)N1CCC(c2ccccc2)CC1 [Example 310]
4.00 to 6.00

Tell me pIC50 reported for COc1cc(C(=O)O)ccc1NS(=O)(=O)c1ccc2sc(-c3ccc(F)cc3)nc2c1 [Example 323]
4.00 to 6.00

Tell me pIC50 reported for COc1cc(C(=O)O)ccc1NS(=O)(=O)c1csc(N2CCN(c3ccc(-c4ccccc4)cc3)CC2)n1 [Example 288]
6.30 to 7.00

Tell me pIC50 reported for O=C(O)c1ccc(NS(=O)(=O)c2cnc(-c3ccc(F)cc3)s2)c(C(F)(F)F)c1 [Example 45]
4.00 to 6.00

Tell me pIC50 reported for COc1cc(-c2ccc(C(=O)O)cc2)ccc1NS(=O)(=O)c1cnc(-c2ccc(F)cc2)s1 [Example 389]
4.00 to 6.00

###

Target Of Assay: Recombinant human HSD17B13 (Homo sapiens (Human), UniProt Q7Z5P4)
Sequence (Q7Z5P4 20-300): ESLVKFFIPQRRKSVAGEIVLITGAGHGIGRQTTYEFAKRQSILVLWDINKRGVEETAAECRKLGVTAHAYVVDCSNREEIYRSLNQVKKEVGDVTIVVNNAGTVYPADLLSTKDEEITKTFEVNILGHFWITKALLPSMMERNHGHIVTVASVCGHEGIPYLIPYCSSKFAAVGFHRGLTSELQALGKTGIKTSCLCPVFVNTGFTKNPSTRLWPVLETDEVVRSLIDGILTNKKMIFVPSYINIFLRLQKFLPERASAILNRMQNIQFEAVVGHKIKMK
Procedure Details: HSD17B13 rapid-fire mass spectrometry assay (RF/MS assay)
Assay type: biochemical
Cond: inhibition of HSD17B13; LTB4 10 μM, NAD+ 0.5 mM, RT 3 h; IC50 ranges A-E
IC50 for assorted compounds

> print(dat)
                                   compound  quantity.measured  value.observed
1  COc1cc(C(=O)O)ccc1NS(=O)(=O)c1csc(C#Cc2ccc(C(N)=O)c(OC(F)(F)F)c2)n1               IC50   0.1 to 0.5 µM
2  COc1cc(C(=O)O)c(F)cc1NS(=O)(=O)c1cnc(-c2ccc(C3=CCC(C(F)(F)F)CC3)cc2)s1 (centres unmarked)               IC50        < 0.1 µM
3  COc1cc(C(=O)O)c(F)cc1NS(=O)(=O)c1csc(-c2ccc(-c3ccsc3)cc2)n1               IC50   0.1 to 0.5 µM
4  COc1cc(C(=O)O)c(F)cc1NS(=O)(=O)c1cnc(-c2ccc([C@H]3CC[C@H](C)CC3)cc2)s1               IC50        < 0.1 µM
5  COc1cc(C(=O)O)c(F)cc1NS(=O)(=O)c1csc(-c2ccc(C3CCC(C)(C)CC3)cc2-c2ccc(F)cc2)n1               IC50   0.1 to 0.5 µM
6  CCOP(=O)(O)c1ccc(NS(=O)(=O)c2csc(C#Cc3cccc(OC(F)(F)F)c3)n2)c(OC)c1               IC50     1 to 100 µM

Enter IC50 (test system Recombinant human HSD17B13 (Homo sapiens (Human), UniProt Q7Z5P4)) for COc1cc(C(=O)O)c(F)cc1NS(=O)(=O)c1csc(-c2ccc(C3=CCC(C)(C)CC3)c(F)c2OC)n1
< 0.1 µM

Enter IC50 (test system Recombinant human HSD17B13 (Homo sapiens (Human), UniProt Q7Z5P4)) for COc1cc(C(=O)O)ccc1NS(=O)(=O)c1csc(-c2ccc(C3CCCC(C)(C)C3)cc2)n1 (centres unmarked)
0.1 to 0.5 µM

Enter IC50 (test system Recombinant human HSD17B13 (Homo sapiens (Human), UniProt Q7Z5P4)) for COc1cc(C(=O)O)c(F)cc1N(C)S(=O)(=O)c1csc(-c2ccc(C3CCC(C)(C)CC3)cc2C(F)(F)F)n1
0.1 to 0.5 µM

Enter IC50 (test system Recombinant human HSD17B13 (Homo sapiens (Human), UniProt Q7Z5P4)) for COc1cc(C(=O)O)c(F)cc1NS(=O)(=O)c1ccc2sc(-c3ccc([C@H]4CC[C@H](C(C)C)CC4)cc3C(F)(F)F)nc2c1
0.1 to 0.5 µM

Enter IC50 (test system Recombinant human HSD17B13 (Homo sapiens (Human), UniProt Q7Z5P4)) for COc1cc(C(=O)O)c(F)cc1NS(=O)(=O)c1ccn(-c2ccc(C3CCC(C)(C)CC3)cc2)n1
0.1 to 0.5 µM

Enter IC50 (test system Recombinant human HSD17B13 (Homo sapiens (Human), UniProt Q7Z5P4)) for COc1cc(C(=O)O)c(F)cc1NS(=O)(=O)c1cnc(-c2ccc(C3=CCC(F)(F)CC3)cc2)s1
0.1 to 0.5 µM

Enter IC50 (test system Recombinant human HSD17B13 (Homo sapiens (Human), UniProt Q7Z5P4)) for O=C(O)c1ccc2c(c1)CN(S(=O)(=O)c1ccc(F)cc1)C2
> 100 µM

Enter IC50 (test system Recombinant human HSD17B13 (Homo sapiens (Human), UniProt Q7Z5P4)) for O=C(O)c1ccccc1NS(=O)(=O)c1cnc(-c2ccc(F)cc2)s1
1 to 100 µM

Enter IC50 (test system Recombinant human HSD17B13 (Homo sapiens (Human), UniProt Q7Z5P4)) for COc1cc(C(=O)O)c(F)cc1NS(=O)(=O)c1ccc2sc(-c3ccc(C4CC4)cc3)nc2c1
0.1 to 0.5 µM

Enter IC50 (test system Recombinant human HSD17B13 (Homo sapiens (Human), UniProt Q7Z5P4)) for CC[C@H]1CC[C@H](c2ccc(-c3nc(S(=O)(=O)Nc4ccc5c(O)cccc5c4OC)cs3)cc2)CC1
1 to 100 µM

Enter IC50 (test system Recombinant human HSD17B13 (Homo sapiens (Human), UniProt Q7Z5P4)) for COc1cc(C(=O)O)ccc1NS(=O)(=O)c1csc(-c2ccccc2OC)n1
0.5 to 1 µM

Enter IC50 (test system Recombinant human HSD17B13 (Homo sapiens (Human), UniProt Q7Z5P4)) for COc1ccc(OC(F)(F)F)cc1C#Cc1nc(S(=O)(=O)Nc2ccc(C(=O)O)cc2OC)cs1
0.1 to 0.5 µM

Values compiled from patent US12384753B2.
